Property: Activity; scope: individual molecules
# Tested on: Bacteroides uniformis
# experiment.notes: Antibacterial activity against Bacteroides uniformis assessed as percent resistant isolates by agar dilution method
# Assay type: functional
Lab book: enter the figure in %, no units written.

Examples with answers:
- molecule: "O=C(N[C@H](CO)[C@H](O)c1ccc([N+](=O)[O-])cc1)C(Cl)Cl [CHLORAMPHENICOL]"
  measured.endpoint: "Activity"
  value.reported: 0
- molecule: "CO[C@@]1(NC(=O)Cc2cccs2)C(=O)N2C(C(=O)O)=C(COC(N)=O)CS[C@@H]21 [CEFOXITIN]"
  measured.endpoint: "Activity"
  value.reported: 9.4

Here is the next item to consider.
Reported Activity for CN(C)c1cc(NC(=O)CNC(C)(C)C)c(O)c2c1C[C@H]1C[C@H]3[C@H](N(C)C)C(O)=C(C(N)=O)C(=O)[C@@]3(O)C(O)=C1C2=O [TIGECYCLINE] was 9.1
